- Test system: ACAD8
- Parameters: species or system human, MV4-11 + K-562 + COLO205 + SK-N-BE2 + OVCAR-8
- particulars: read-out: apparent Kd; compound concentrations:100 nM and 1000 nM (sheet 'Samples'); n = 1
Rule for this label: true (1) means potency estimated from few doses is less than 2000 nM; false (0) means potency estimated from few doses is at least 2000 nM.

Recorded results for 5 compounds are shown here.
• NC(=O)c1cccnc1COc1cc(-c2ccc(N3CCOCC3)nc2)cc2ncccc12 = true (1)
• CCS(=O)(=O)c1ccc(OC)c(Nc2ncc(-c3cccc(F)c3)o2)c1 = false (0)
• Fc1ccc(-c2ncn(C3CCNCC3)c2-c2ccnc(Oc3ccc4c(c3)OCO4)n2)cc1 = true (1)
• Nc1c(C(=O)c2ccccc2)cnn1-c1ccc(F)cc1 = true (1)
• COc1ccc(COc2ccc(Cc3cnc(N)nc3N)cc2OC)cc1 [GW632580X] = true (1)

Decide: potency estimated from few doses of Cc1ccc(-n2nc(C(C)(C)C)cc2NC(=O)Nc2ccc(OCCN3CCOCC3)cc2)cc1 [BIRB0876BS] strictly below 2000 nM?
false (0)
